- tgt: human CB2R (Homo sapiens, UniProt P34972)
- Construct: host or cells: CHO cells
- Sequence (P34972 whole entry): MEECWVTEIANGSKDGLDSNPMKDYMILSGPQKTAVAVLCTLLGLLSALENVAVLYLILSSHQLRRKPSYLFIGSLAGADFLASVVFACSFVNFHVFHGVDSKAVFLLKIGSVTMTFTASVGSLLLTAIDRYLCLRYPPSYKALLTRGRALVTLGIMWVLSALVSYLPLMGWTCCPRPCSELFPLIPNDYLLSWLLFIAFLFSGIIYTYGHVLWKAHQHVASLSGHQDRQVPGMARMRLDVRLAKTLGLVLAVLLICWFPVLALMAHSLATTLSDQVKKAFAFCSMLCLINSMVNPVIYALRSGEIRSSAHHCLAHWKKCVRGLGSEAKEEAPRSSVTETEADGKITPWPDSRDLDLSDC
- methodNotes: CB2R mediated modulation of cAMP synthesis
- Format: cell-based
- measurementContext: found through the use of the above described assays
propertyMeasured: agonistic activity

CCCS(=O)(=O)C(C)(C)C(=O)Nc1cc(-c2cccs2)nn1C
agonistic activity
CC(C)(C(=O)Nc1nc(-c2cccnc2)cs1)S(=O)(=O)CC1CCOCC1
agonistic activity
CC(C)(C)c1cc(NC(=O)C(C)(C)S(=O)(=O)CC(F)(F)F)no1
agonistic activity

====

- tgt: human CB2R (Homo sapiens, UniProt P34972)
- Construct: host or cells: CHO cells
- methodNotes: CB2R mediated modulation of cAMP synthesis
- Assay type: cell-based
Reported log10 EC50 values for the following molecules.
Note: values are log10 of EC50 expressed in nM.

Recorded log10 EC50, per entry:
CC(C)(C)c1nnc(NC(=O)C(C)(C)S(=O)(=O)C2CCCC2)s1
1.27
CC(C)(C(=O)Nc1nc(-c2ccc(F)cc2)cs1)S(=O)(=O)CC1CCOCC1
0.74
CCCS(=O)(=O)C(C)(C)C(=O)Nc1cc(C(C)(C)C)no1
1.95
CC(C)(C(=O)Nc1ccc2ccccc2n1)S(=O)(=O)CC1CCOCC1
0.76
CC(C)(C)c1cc(NC(=O)C(C)(C)S(=O)(=O)CC2CCCCC2)no1
-0.22

Q: Find log10 EC50 for CC(C)(C)c1cc(NC(=O)C(C)(C)S(=O)(=O)C2CCOCC2)on1 on human CB2R (Homo sapiens, UniProt P34972) and write it down.
Result: -1.00

Q: Find log10 EC50 for CCCS(=O)(=O)C(C)(C)C(=O)Nc1nc(-c2ccccc2)c(CC)s1 on human CB2R (Homo sapiens, UniProt P34972) and write it down.
Result: 1.03

Q: Find log10 EC50 for CC(C)(C(=O)Nc1cc2ccccc2cn1)S(=O)(=O)CC1CCOCC1 on human CB2R (Homo sapiens, UniProt P34972) and write it down.
Result: 2.00

Q: Find log10 EC50 for CC(C)(C)c1cccc(NC(=O)C(C)(C)S(=O)(=O)CC2CCOCC2)c1 on human CB2R (Homo sapiens, UniProt P34972) and write it down.
Result: 1.16

Q: Find log10 EC50 for CC(C)(C)c1csc(NC(=O)C2(S(=O)(=O)C3CCCCC3)CCC2)n1 on human CB2R (Homo sapiens, UniProt P34972) and write it down.
Result: 1.07

Q: Find log10 EC50 for CC(C)(C(=O)Nc1ccc(C(F)(F)F)cn1)S(=O)(=O)CC1CCOCC1 on human CB2R (Homo sapiens, UniProt P34972) and write it down.
Result: 1.86

Q: Find log10 EC50 for CCCS(=O)(=O)C(C)(C)C(=O)Nc1nc(-c2ccccc2)c(C)s1 on human CB2R (Homo sapiens, UniProt P34972) and write it down.
Result: 1.72

Q: Find log10 EC50 for CC(C)(C(=O)Nc1ccc(C(F)(F)F)cn1)S(=O)(=O)C1CCCCC1 on human CB2R (Homo sapiens, UniProt P34972) and write it down.
Result: 1.07

Q: Find log10 EC50 for CCCS(=O)(=O)C(C)(C)C(=O)Nc1cc(C(C)(C)C)on1 on human CB2R (Homo sapiens, UniProt P34972) and write it down.
Result: 1.79

Q: Find log10 EC50 for CC(C)(C)c1cc(NC(=O)C(C)(C)S(=O)(=O)Cc2ccc(Cl)cc2)no1 on human CB2R (Homo sapiens, UniProt P34972) and write it down.
Result: 1.22

Q: Find log10 EC50 for CCCS(=O)(=O)C(C)(C)C(=O)Nc1nc(-c2ccc(Cl)cc2)cs1 on human CB2R (Homo sapiens, UniProt P34972) and write it down.
Result: 1.11

Q: Find log10 EC50 for CC(C)CS(=O)(=O)C(C)(C)C(=O)Nc1cc(C(C)(C)C)no1 on human CB2R (Homo sapiens, UniProt P34972) and write it down.
Result: 0.20

Q: Find log10 EC50 for Cn1nc(C(C)(C)C)cc1NC(=O)C(C)(C)S(=O)(=O)CC1CCCCC1 on human CB2R (Homo sapiens, UniProt P34972) and write it down.
Result: 1.38

Q: Find log10 EC50 for CC(C)(C)c1cc(NC(=O)C(C)(C)S(=O)(=O)C2(C)CCOCC2)no1 on human CB2R (Homo sapiens, UniProt P34972) and write it down.
Result: 0.97

Q: Find log10 EC50 for CC(C)(C)c1cc(NC(=O)C(C)(C)S(=O)(=O)C2CCCCCC2)no1 on human CB2R (Homo sapiens, UniProt P34972) and write it down.
Result: -1.00

Origin of measurements: patent US8829034B2
